Assay: Example C: HTL0018318 plasma and urine pharmacokinetics
Format: in vivo, human
Conditions: human, plasma, oral, 15 mg + DPZ, 1st dose; read-out: Half-life (mean) (converted)
Test Readout: half-life
Give your result as the value with the unit written after it.

Incoming: Item CCOC(=O)N1C2CCC1CC(N1CCC3(CC1)CNC(=O)C3)C2 (stereo not shown) [HTL0018318] has what recorded half-life?
Outgoing: 8.97 h

====

Assay: Example C: HTL0018318 plasma and urine pharmacokinetics
Type: in vivo, human
Conditions: human, plasma, oral, 15 mg + DPZ, 5th dose; read-out: Half-life (mean) (converted)
Test Readout: half-life (h)
Numbers only; they are read as h.

Incoming: Query: half-life; subject: CCOC(=O)N1C2CCC1CC(N1CCC3(CC1)CNC(=O)C3)C2 (stereo not shown)
Outgoing: 11.6

====

Assay: Example C: HTL0018318 plasma and urine pharmacokinetics
Format: in vivo, human
Conditions: human, plasma, oral, 25 mg + DPZ, 1st dose; read-out: Tmax (median)
Test Readout: Tmax (h)
# value in h; strip the unit string

Incoming: Give the measured Tmax of CCOC(=O)N1C2CCC1CC(N1CCC3(CC1)CNC(=O)C3)C2 (stereo not shown) [HTL0018318] .
Outgoing: 1.76

====

Experiment: Example C: HTL0018318 plasma and urine pharmacokinetics
Format: in vivo, human
Details: human, plasma, oral, 25 mg, 25 mg only, 5th dose; read-out: Tmax (median)
Test Readout: Tmax
Field note: include the unit after the figure.

Incoming: Query: Tmax; subject: CCOC(=O)N1C2CCC1CC(N1CCC3(CC1)CNC(=O)C3)C2 (stereo not shown) [HTL0018318]
Outgoing: 1.76 h

====

Experiment: Example C: HTL0018318 plasma and urine pharmacokinetics
Format: in vivo, human
Conditions: human, plasma, oral, 15 mg + DPZ, 1st dose
Test Readout: Cmax (ng/mL)
Supply the numeric figure in ng/mL, leaving out any unit text.

Incoming: Consider the molecule CCOC(=O)N1C2CCC1CC(N1CCC3(CC1)CNC(=O)C3)C2 (stereo not shown) and give its measured Cmax.
Outgoing: 91.2

====

Assay: Example C: HTL0018318 plasma and urine pharmacokinetics
Assay type: in vivo, human
Conditions: human, plasma, oral, 25 mg + DPZ, 5th dose; read-out: Tmax (median)
Test Readout: Tmax (h)
# unit: h | format: bare number

Incoming: Look up Tmax: CCOC(=O)N1C2CCC1CC(N1CCC3(CC1)CNC(=O)C3)C2 (stereo not shown)
Outgoing: 2

====

Assay: Example C: HTL0018318 plasma and urine pharmacokinetics
Assay type: in vivo, human
Details: human, plasma, oral, 25 mg, 25 mg only, 1st dose; read-out: AUC0-inf (mean)
Test Readout: AUC(0-inf) (ng·h/mL)
Express your answer in ng·h/mL, writing the number without its unit.

Incoming: Which measured AUC(0-inf) value corresponds to CCOC(=O)N1C2CCC1CC(N1CCC3(CC1)CNC(=O)C3)C2 (stereo not shown) ?
Outgoing: 1650

====

Experiment: Example D: HTL0018318 plasma pharmacokinetics
Format: in vivo, human
Details: human, plasma, 10 mg, visit day 6; read-out: Cmax, arithmetic mean ± SD
Test Readout: Cmax

Incoming: What Cmax value was documented for this compound, CCOC(=O)N1C2CCC1CC(N1CCC3(CC1)CNC(=O)C3)C2 (stereo not shown) [HTL0018318] ?
Outgoing: 82.4 ng/mL

====

Assay: Example C: HTL0018318 plasma and urine pharmacokinetics
Type: in vivo, human
Conditions: human, plasma, oral, 15 mg + DPZ, 5th dose; read-out: Tmax (median)
Test Readout: Tmax (h)
// note: answer is a bare numeric in h

Incoming: Form field: reported Tmax of CCOC(=O)N1C2CCC1CC(N1CCC3(CC1)CNC(=O)C3)C2 (stereo not shown) [HTL0018318]
Outgoing: 1.74

====

Assay: Example C: HTL0018318 plasma and urine pharmacokinetics
Assay type: in vivo, human
Settings: human, plasma, oral, 15 mg, 15 mg only, 5th dose; read-out: Half-life (mean) (converted)
Test Readout: half-life
Answer as a quantity: numeral, then unit.

Incoming: What half-life value was documented for this compound, CCOC(=O)N1C2CCC1CC(N1CCC3(CC1)CNC(=O)C3)C2 (stereo not shown) ?
Outgoing: 13.8 h

====

Assay: Example C: HTL0018318 plasma and urine pharmacokinetics
Type: in vivo, human
Settings: human, plasma, oral, 15 mg + DPZ, 1st dose; read-out: Tmax (median)
Test Readout: Tmax (h)
# number only, unit h dropped from output

Incoming: Please report the recorded Tmax for CCOC(=O)N1C2CCC1CC(N1CCC3(CC1)CNC(=O)C3)C2 (stereo not shown) .
Outgoing: 2.5

====

Assay: Example C: HTL0018318 plasma and urine pharmacokinetics
Type: in vivo, human
Settings: human, plasma, oral, 25 mg, 25 mg only, 5th dose
Test Readout: Cmax (ng/mL)
Supply the numeric figure in ng/mL, leaving out any unit text.

Incoming: Field request: Cmax | item: CCOC(=O)N1C2CCC1CC(N1CCC3(CC1)CNC(=O)C3)C2 (stereo not shown)
Outgoing: 162

====

Test: Example C: HTL0018318 plasma and urine pharmacokinetics
Assay type: in vivo, human
Conditions: human, plasma, oral, 25 mg + DPZ, 5th dose; read-out: Half-life (mean) (converted)
Test Readout: half-life (h)
The reply should be a number in h, with the unit left off.

Incoming: Endpoint output: half-life of CCOC(=O)N1C2CCC1CC(N1CCC3(CC1)CNC(=O)C3)C2 (stereo not shown) . Value?
Outgoing: 10.7

====

Assay: Example D: HTL0018318 plasma pharmacokinetics
Type: in vivo, human
Details: human, plasma, 10 mg, visit day 11, n = 2; read-out: AUC0-4 h, mean [minimum, maximum]
Test Readout: AUC(0-t) (ng·h/mL)
Give the number; ng·h/mL is assumed, so skip it.

Incoming: # input compound: CCOC(=O)N1C2CCC1CC(N1CCC3(CC1)CNC(=O)C3)C2 (stereo not shown) [HTL0018318] ; wanted: its AUC(0-t)
Outgoing: 231

====

Assay: Example D: HTL0018318 plasma pharmacokinetics
Type: in vivo, human
Conditions: human, plasma, 15 mg, visit day 6; read-out: AUC0-4 h, arithmetic mean ± SD
Test Readout: AUC(0-t)

Incoming: # query: AUC(0-t) of entry CCOC(=O)N1C2CCC1CC(N1CCC3(CC1)CNC(=O)C3)C2 (stereo not shown) [HTL0018318]
Outgoing: 315 ng·h/mL

====

Assay: Example C: HTL0018318 plasma and urine pharmacokinetics
Format: in vivo, human
Settings: human, plasma, oral, 25 mg + DPZ, 5th dose; Tau = 24 hrs; read-out: AUC0-tau (mean)
Test Readout: AUC

Incoming: What measured AUC goes with CCOC(=O)N1C2CCC1CC(N1CCC3(CC1)CNC(=O)C3)C2 (stereo not shown) [HTL0018318] ?
Outgoing: 1740 ng·h/mL

====

Test: Example D: HTL0018318 plasma pharmacokinetics
Type: in vivo, human
Conditions: human, plasma; 25 mg, visit day 28; read-out: Ctrough, arithmetic mean ± SD
Test Readout: concentration at 28 day (ng/mL)
The reply should contain only the number, in ng/mL.

Incoming: What value of concentration at 28 day has been reported for the following compound? CCOC(=O)N1C2CCC1CC(N1CCC3(CC1)CNC(=O)C3)C2 (stereo not shown)
Outgoing: 40.3

====

Assay: Example D: HTL0018318 plasma pharmacokinetics
Assay type: in vivo, human
Conditions: human, plasma; 15 mg, visit day 16; read-out: Ctrough, arithmetic mean ± SD
Test Readout: concentration at 16 day (ng/mL)
Report the value in ng/mL with no unit label.

Incoming: What measured concentration at 16 day goes with CCOC(=O)N1C2CCC1CC(N1CCC3(CC1)CNC(=O)C3)C2 (stereo not shown) ?
Outgoing: 29.4

====

Assay: Example D: HTL0018318 plasma pharmacokinetics
Type: in vivo, human
Settings: human, plasma; all doses; read-out: Tmax (median)
Test Readout: Tmax

Incoming: Quick check: Tmax of CCOC(=O)N1C2CCC1CC(N1CCC3(CC1)CNC(=O)C3)C2 (stereo not shown) ?
Outgoing: 1 to 2 h

====

Assay: Example C: HTL0018318 plasma and urine pharmacokinetics
Assay type: in vivo, human
Conditions: human, plasma and urine, oral, 25 mg, 25 mg only, 1st dose
Test Readout: CL renal
Write the quantity with the unit trailing the number.

Incoming: Could you tell me which CL renal is on file for CCOC(=O)N1C2CCC1CC(N1CCC3(CC1)CNC(=O)C3)C2 (stereo not shown) ?
Outgoing: 104 mL/min

====

Assay: Example C: HTL0018318 plasma and urine pharmacokinetics
Format: in vivo, human
Settings: human, plasma, oral, 25 mg, 25 mg only, 5th dose; read-out: Half-life (mean) (converted)
Test Readout: half-life (h)
The answer is to be given in h; state only the numeric part.

Incoming: Would you mind telling me what half-life value was observed for CCOC(=O)N1C2CCC1CC(N1CCC3(CC1)CNC(=O)C3)C2 (stereo not shown) ?
Outgoing: 13.4
